- Tgt: Recombinant Human FGFR2 alpha (IIIc) Fc Chimera Protein (Homo sapiens, UniProt P21802)
- Construct: Fc (chimera); purchased R&D systems 712-FR-050
- Sequence (P21802 with tags, fused parts or gaps limits assumed): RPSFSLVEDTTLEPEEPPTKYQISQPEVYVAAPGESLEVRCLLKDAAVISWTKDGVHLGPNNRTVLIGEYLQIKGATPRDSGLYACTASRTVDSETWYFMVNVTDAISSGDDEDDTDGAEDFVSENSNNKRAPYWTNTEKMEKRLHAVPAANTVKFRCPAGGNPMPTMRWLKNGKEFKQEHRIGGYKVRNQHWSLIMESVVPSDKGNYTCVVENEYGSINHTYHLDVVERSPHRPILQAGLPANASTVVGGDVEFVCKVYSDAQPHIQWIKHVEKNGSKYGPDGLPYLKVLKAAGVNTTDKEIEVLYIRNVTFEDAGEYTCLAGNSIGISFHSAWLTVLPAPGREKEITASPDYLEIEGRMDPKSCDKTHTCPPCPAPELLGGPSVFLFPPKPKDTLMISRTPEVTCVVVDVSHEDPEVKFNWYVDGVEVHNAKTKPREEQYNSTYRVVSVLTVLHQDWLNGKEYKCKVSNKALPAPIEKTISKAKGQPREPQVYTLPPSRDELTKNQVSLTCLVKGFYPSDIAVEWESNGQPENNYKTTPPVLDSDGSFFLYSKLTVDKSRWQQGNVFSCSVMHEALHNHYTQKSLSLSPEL
- Protocol Text: ELISA binding affinity of enzymatically synthesized peptide to FGFR
- Setup Conditions: ELISA luminescence signal at 10 nmol/L peptide, SEQ ID NO: 47 at 10 nmol/L standardized to 1; enzyme synthesis product
Bridge positions count the residues as written; N and C are the ends. Ends that are not written are not given here. COCH2 = acetyl group that carries the bridge
Assay Readout: Evaluation result of binding affinity to FGFR

Completed entries (count: 7):
Substance: 339 (YCEENYKDPEQYQYFIYFK(COCH2)Y; thioether 2-19 (inferred)) [compound 339]
Result: A (0.7 or more)
//
Substance: 410 (WCQESSNYLAPLQWYFFNWYK(COCH2)T; thioether 2-21 (inferred)) [compound 410]
Result: A (0.7 or more)
//
Substance: 229 (YCEENYLDQEQYQYFIYFK(COCH2)Y; thioether 2-19 (inferred)) [compound 229]
Result: A (0.7 or more)
//
Substance: 336 (YCKENYLDPEQYQYFIYFK(COCH2)Y; thioether 2-19 (inferred)) [compound 336]
Result: A (0.7 or more)
//
Substance: 298 (YCEENYLDPEQYQYFINFK(COCH2)Y; thioether 2-19) [compound 298]
Result: A (0.7 or more)
//
Substance: 275 (YCEENYLDPEQYQYLIYFK(COCH2)Y; thioether 2-19) [compound 275]
Result: A (0.7 or more)
//
Substance: 211 (YCEENYLFPEQYQYFIYFK(COCH2)Y; thioether 2-19 (inferred)) [compound 211]
Result: A (0.7 or more)

[in] # Evaluation result of binding affinity to FGFR lookup, item 65 (KCPQNFINPVQWRYFAHYK(COCH2)N; thioether 2-19 (inferred)) [compound 65]
[out] A (0.7 or more)

Entry source: patent US20260008815A1
